System: cGAS activity in THP1 cells (IFNb as marker)
Assay: Cellular assay to measure cGAS activity (IFNb production in PMA-differentiated THP1 cells stimulated by RDG-Adenovirus-GFP)
Format: cell-based, human
Settings: Homo sapiens, THP-1, THP1 cells, PMA differentiated, RDG-Adenovirus-GFP 1000 MOI, IFNb AlphaLISA, overnight incubation; read-out: IC50 (μM), Cellular assay for Compounds 95-348
Structures can show the parent of a compound that is named as a salt.
Give IC50 for every item shown.
Numbers only, in µM.

Consider the reported IC50 for these compounds:
[[record]]
compound = "CCNc1cc(Cl)c(Cl)c2c1c(-c1cn[nH]c1)c1n2CCN(C)C1=O [Example 149, hydrochloride]"
observed_value = 6.05

[[record]]
compound = "CN1CCn2c(c(-c3cn[nH]c3)c3c(OCCCO)cc(Cl)c(Cl)c32)C1=O"
observed_value = 0.426

[[record]]
compound = "CC(=O)NC1CCCn2c1c(-c1cn[nH]c1)c1ccc(Cl)c(Cl)c12 (stereo not shown)"
observed_value = 5.23


Kindly consider the entry below.
Problem: Provide value of IC50 for this record tested with cGAS activity in THP1 cells (IFNb as marker): CNNc1cc(Cl)c(Cl)c2[nH]cc(-c3cn[nH]c3)c12 [Example 215, hydrochloride]
Result: 2.59
